Overview of reported pKd across a group of binders:
# subject.of.test: T1, RARα ligand binding domain (amino acids 146-432) (UniProt P10276 146-432)
# T1 construct: range 146-432; not shown: His-tag
# T1 sequence (looked up): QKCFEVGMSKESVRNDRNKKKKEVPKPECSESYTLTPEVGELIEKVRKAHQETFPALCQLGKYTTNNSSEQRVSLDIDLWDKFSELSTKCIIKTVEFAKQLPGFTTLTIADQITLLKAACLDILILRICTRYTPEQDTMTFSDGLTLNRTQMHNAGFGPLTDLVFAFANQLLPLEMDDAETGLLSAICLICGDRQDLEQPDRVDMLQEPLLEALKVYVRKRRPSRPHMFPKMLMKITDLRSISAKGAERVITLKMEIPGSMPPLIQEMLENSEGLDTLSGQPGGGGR
# assay.procedure: fluorescence polarization, 10 nM fluorescein peptide, LBD titrated, no ligand
Primed or numbered codes have the meaning given here. No end group written: not given here. fluorescein = fluorescein: fluorescein label attached at the N-terminus of the peptide; fluorescein″ = fluorescein label attached to the peptide N-terminus
Reminder that pKd is minus the log10 of a molar concentration.

fluorescein-GHSFADPASNLGLEDIIRKALMGSF (also called NCOR peptide; NCoR 2251-2275) [Fluoroscein-NCOR ID-C peptide (NCoR amino acids 2251-2275)]    5.70

### Prompt Param item = {fluorescein″}-TNMGLEAIIFKALMGKYDQWEE [Fluoroscein-SMRT ID-C peptide] ; retrieve measured pKd.
### Response 5.68

The origin of these recorded values is patent US20050227220A1.
